Can you tell me IC50 for the items I'm about to list?
Target chain: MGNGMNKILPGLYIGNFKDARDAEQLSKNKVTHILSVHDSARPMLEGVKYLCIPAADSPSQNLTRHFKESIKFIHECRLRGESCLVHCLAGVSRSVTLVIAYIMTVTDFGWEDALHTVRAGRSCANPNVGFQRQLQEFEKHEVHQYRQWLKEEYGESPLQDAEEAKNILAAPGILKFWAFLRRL
Give bare numbers, in µM.

Below are worked cases with known answers.
O=C(O)c1ccc(N2C(=O)/C(=C/c3ccccc3)SC2=S)cc1    18
O=C(O)c1cccc(N2C(=O)/C(=C/c3ccccc3)SC2=S)c1 (stereo in doubt; 5t)    7
Cc1ccc(/C=C2\SC(=S)N(c3cccc(C(=O)O)c3)C2=O)cc1    16
O=C(O)c1cc(N2C(=O)/C(=C/c3ccccc3)SC2=S)ccc1O    13
O=C(O)c1cccc(N2C(=O)/C(=C/c3ccc(O)cc3)SC2=S)c1    157
COc1ccc(/C=C2\SC(=S)N(c3cccc(C(=O)O)c3)C2=O)cc1    26

Inquiry: Sample Cc1cc(C(=O)O)ccc1N1C(=O)/C(=C/c2ccccc2)SC1=S — what was its IC50?
Reply text: 66
